These data points were gathered from patent US20240084003A1.

Molecular target: T1, monkey CD22 protein (ACROBiosystems, catalog number SI2-R52Ha) (monkey, UniProt F6W485 20-688)
T1 construct: commercial protein; also called monkey CD22-ECD; monkey CD22-ECD-His
T1 sequence: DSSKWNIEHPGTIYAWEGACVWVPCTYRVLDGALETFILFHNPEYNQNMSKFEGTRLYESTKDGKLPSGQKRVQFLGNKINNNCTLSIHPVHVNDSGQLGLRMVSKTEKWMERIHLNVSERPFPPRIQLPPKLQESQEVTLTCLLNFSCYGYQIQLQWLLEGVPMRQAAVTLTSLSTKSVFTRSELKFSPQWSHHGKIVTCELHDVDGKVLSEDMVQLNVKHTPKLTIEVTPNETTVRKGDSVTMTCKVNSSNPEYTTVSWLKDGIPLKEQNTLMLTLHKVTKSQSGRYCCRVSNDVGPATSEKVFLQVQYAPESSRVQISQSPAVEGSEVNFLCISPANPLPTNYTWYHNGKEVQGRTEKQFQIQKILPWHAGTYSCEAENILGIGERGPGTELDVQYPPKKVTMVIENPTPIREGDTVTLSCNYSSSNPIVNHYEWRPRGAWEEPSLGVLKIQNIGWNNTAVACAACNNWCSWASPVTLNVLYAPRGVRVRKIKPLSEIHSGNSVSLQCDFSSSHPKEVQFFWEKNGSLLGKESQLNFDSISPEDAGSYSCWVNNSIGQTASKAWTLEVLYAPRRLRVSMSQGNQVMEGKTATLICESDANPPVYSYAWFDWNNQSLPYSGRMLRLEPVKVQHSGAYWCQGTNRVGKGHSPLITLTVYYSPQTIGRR
Test: ELISA, coated monkey CD22 protein, antibody 0.01 nM
metric: OD450

Find the recorded OD450 belonging to F2.151.13 (antibody, human IgG1, lambda, V domains shown, human-murine chimeric IgG1 lambda) VH: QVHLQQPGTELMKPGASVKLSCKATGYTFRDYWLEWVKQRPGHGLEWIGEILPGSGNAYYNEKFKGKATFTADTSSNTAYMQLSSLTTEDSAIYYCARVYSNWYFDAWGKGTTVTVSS VL: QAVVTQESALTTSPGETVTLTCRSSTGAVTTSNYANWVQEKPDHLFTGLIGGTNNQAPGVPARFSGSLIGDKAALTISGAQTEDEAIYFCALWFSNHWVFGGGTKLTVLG and report it.
0.94 OD450

Here is the next item to consider.
Find the recorded OD450 belonging to F1.224.1 (antibody, human IgG1, kappa, V domains shown, human-murine chimeric IgG1 kappa; VL name legible) VH: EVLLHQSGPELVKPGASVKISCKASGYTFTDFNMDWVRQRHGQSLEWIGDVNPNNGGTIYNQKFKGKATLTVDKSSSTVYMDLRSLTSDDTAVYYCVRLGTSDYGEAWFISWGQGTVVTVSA VL: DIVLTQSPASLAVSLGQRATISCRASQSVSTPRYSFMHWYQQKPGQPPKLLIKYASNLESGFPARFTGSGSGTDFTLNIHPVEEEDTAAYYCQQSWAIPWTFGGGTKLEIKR and report it.
1.86 OD450
